PROTOCOL_SUMMARY: Solubility in water by HPLC
Assay type: physicochemical
TEST_CONTEXT: water, read-out: Solubility in water, mass concentration
OBSERVATION_TYPE: solubility at 5 min (µg/mL)
Lab book: enter the figure in µg/mL, no units written.

-- ask State the recorded solubility at 5 min for this entry: `CCOC(=O)c1[nH]c2cc(F)ccc2c1/N=N/N1CCCC1`
-- reply 0.88

----------
Test system: MRSA clinical isolates
PROTOCOL_SUMMARY: Antibiotic susceptibility profile of MRSA clinical isolates (EUCAST breakpoints)
Format: cell-based, Staphylococcus aureus
TEST_CONTEXT: MRSA strain 46
OBSERVATION_TYPE: Drug sensibility profile

| COMPOUND | MEAS_VALUE |
| --- | --- |
| CNC(C)C1CCC(N)C(OC2C(N)CC(N)C(OC3OCC(C)(O)C(NC)C3O)C2O)O1 (stereo not drawn) | S |
| CN(C)c1cc(NC(=O)CNC(C)(C)C)c(O)c2c1C[C@H]1C[C@H]3[C@H](N(C)C)C(O)=C(C(N)=O)C(=O)[C@@]3(O)C(O)=C1C2=O | S |
| CC[C@H]1OC(=O)[C@H](C)[C@@H](O[C@H]2C[C@@](C)(OC)[C@@H](O)[C@H](C)O2)[C@H](C)[C@@H](O[C@@H]2O[C@H](C)C[C@H](N(C)C)[C@H]2O)[C@](C)(O)C[C@@H](C)C(=O)[C@H](C)[C@@H](O)[C@]1(C)O | S |
